# Protocol summary: chemical genetic growth profiling, strain panel (AID 1159580);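 also: tested at 20 µM; growth read once vehicle control cultures reached saturation at 30 °C; lower values mean less growth of the strain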
# Recorded conditions: S. cerevisiae deletion strains, growth OD, locus YDR388W
The whole screen tested about 5,500 compounds, of which about 2,000 (36%) were called active. About 18% were inconclusive and are not listed. Rule as the data show it: active = normalized growth mostly below about 0.91 (no sharp cut-off); inconclusive = no clear call, values can overlap the other calls; inactive = mostly above about 0.92. Some of the results follow.
In this exercise, the only acceptable responses are YES (active), NO (inactive)

# Molecule, Label
records = [
    ("O=C(CCCN1CCC(O)(c2ccc(Cl)cc2)CC1)c1ccc(F)cc1", "YES"),
]

Exercise: So what was the verdict on `CC1(C)S[C@@H]2[C@H](NC(=O)[C@@H](N)c3ccc(O)cc3)C(=O)N2[C@H]1C(=O)O` in this test?
Solution: NO

Exercise: For `O=C(/C=C(\O)c1ccccc1)c1ccccc1O` then?
Solution: YES

Exercise: Item: C[C@H]1[C@H](C)CC[C@]2(C(=O)O)CC[C@]3(C)C(=CCC4[C@@]5(C)C[C@@H](O)[C@H](O)[C@@](C)(CO)C5[C@H](O)C[C@]43C)[C@H]12 (stereo not given in full)
Solution: YES

Exercise: Moving on to C[C@@H](CO)NC(=O)C1C=C2c3cccc4[nH]cc(c34)C[C@H]2N(C)C1 (stereo not given in full)
Solution: NO

Exercise: Check `O=C(O)c1ccccc1O` too.
Solution: NO
